Assay: Midazolam permeability of intestinal epithelial cells (apical to basolateral, cell culture insert)
Format: in vitro ADME
Conditions: human, cells of Example 4; scaling factor x = 4; read-out: Apparent permeability coefficient after correction
attribute-measured: Papp at 60 min, 10 μmol/L (×10⁻⁶ cm/s)
Reply numerically in ×10⁻⁶ cm/s, unit not repeated.

Report Papp at 60 min, 10 μmol/L for Cc1ncc2n1-c1ccc(Cl)cc1C(c1ccccc1F)=NC2 please.
8.6

* * *

Experiment: Midazolam permeability of intestinal epithelial cells (apical to basolateral, cell culture insert)
Assay type: in vitro ADME
Settings: human, cells of Comparative Example 1; 10 μmol/L midazolam apical pH 6.5, basolateral pH 7.4, 37° C., 60 minutes; read-out: Apparent permeability coefficient
attribute-measured: Papp A→B at 60 min, 10 μmol/L
Lab note: write values as number then unit, every time.

Report Papp A→B at 60 min, 10 μmol/L for Cc1ncc2n1-c1ccc(Cl)cc1C(c1ccccc1F)=NC2 [midazolam] please.
48 ×10⁻⁶ cm/s

* * *

Test: Midazolam permeability of intestinal epithelial cells (apical to basolateral, cell culture insert)
Format: in vitro ADME
Settings: human, cells of Example 3; 10 μmol/L midazolam apical pH 6.5, basolateral pH 7.4, 37° C., 60 minutes; read-out: Apparent permeability coefficient
attribute-measured: Papp A→B at 60 min, 10 μmol/L (×10⁻⁶ cm/s)
Reply numerically in ×10⁻⁶ cm/s, unit not repeated.

Report Papp A→B at 60 min, 10 μmol/L for Cc1ncc2n1-c1ccc(Cl)cc1C(c1ccccc1F)=NC2 please.
33

* * *

Assay: Midazolam permeability of intestinal epithelial cells (apical to basolateral, cell culture insert)
Format: in vitro ADME
Conditions: human, cells of Example 4; scaling factor x = 3; read-out: Apparent permeability coefficient after correction
attribute-measured: Papp at 60 min, 10 μmol/L (×10⁻⁶ cm/s)
Reply numerically in ×10⁻⁶ cm/s, unit not repeated.

Report Papp at 60 min, 10 μmol/L for Cc1ncc2n1-c1ccc(Cl)cc1C(c1ccccc1F)=NC2 please.
15.2
